B1: TPR t1 (parent)
chain: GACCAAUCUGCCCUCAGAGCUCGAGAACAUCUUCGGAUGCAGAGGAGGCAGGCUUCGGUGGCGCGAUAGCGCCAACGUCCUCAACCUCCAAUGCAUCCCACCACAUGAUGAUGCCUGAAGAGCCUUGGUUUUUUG

variants of: B1; assay: polymerase ribozyme fitness, log enrichment relative to wild type (log ratio); higher = more active; in vitro selection for triplet polymerase activity
Reported values of polymerase ribozyme fitness (log ratio) for individual entries

[
  {
    "Query Sequence": "GACCAAUCUGCCCUCAGAGCUCGAGAACAUCUUCGUAUGCAGAGGAGGCAGGCUUCGGUGGCGCGAUAGCGCCAACGUCCUCAACCUCCAAUGCAUCCCACCACAUGAUGGUGCCUGAAGAGCCUUGGUUUUGUG",
    "polymerase ribozyme fitness (log ratio)": -2.38
  },
  {
    "Query Sequence": "GACCAAUCUGCCCUCAGAGCUCGAGAACAUCUUCGGAUGCAGAGGAGGCAGGCUUCGGUGGAGCGAUAGCGCCAACGUCCUGAACCUCCAAUGCAUCCCACCACAUGAUGAUGCCUAAAGAGCCUUGGUUUUUUG",
    "polymerase ribozyme fitness (log ratio)": -3.75
  },
  {
    "Query Sequence": "GACCAAUCUGCCCUUAGAGCUCGAGAACAUCUUGGGAUGCAGAGGAGGCAGGUUUCGGUGGCGCGAUAGCGCCAACGUCCUCAACCUCCAAUGCAUCCCACCACAUGAUGAUGUCUGAAGAGCCUUGGUUUUUUG",
    "polymerase ribozyme fitness (log ratio)": -5.11
  },
  {
    "Query Sequence": "GACCAAUCUGCCCUCAGAGCUCGAGAACAUCUUCGGAUGCAGAGGAGGCAGGCUUCGGUGGCGCGAUAGCCCCAACGUCCUCAACCUCCAAUGCAUCCCACCACAUGAUGAAGCCUGAAGAGCCUUGGUUUUUUG",
    "polymerase ribozyme fitness (log ratio)": 0.348
  },
  {
    "Query Sequence": "GACCAAUCUGCCCUCAGAGCUCGAGAACAUCUUCGGAUGCAGAGGAGGCAGGAUUCGGUGGCGCGAUAGCGCCAACGUCCUCAACCUCCAAUGCAUCCCACCUCAUGAUGAUGCCUGAAGAGCCUUGGUUUUUUG",
    "polymerase ribozyme fitness (log ratio)": -4.67
  },
  {
    "Query Sequence": "GACCAAUCUGCCCUCAGAGCUCGAGAGCAUCUUCGGAUGCAGAGGAGGCAGGCUUAGGUGGCGCGAUAGCGCCAACGUCCUCAACCUCCAAUGCAUCCCACCACAUGAUGAUGCCUGAAGAGCCUUGGUUUUUUG",
    "polymerase ribozyme fitness (log ratio)": -2.09
  },
  {
    "Query Sequence": "GAACAAUCUGCCCUCAUCGCUCGUGAACAUCGUCGGAUGGAUGGGAGGCAGGCUUCGGUGGCGCGAUAGCGCCAACGUCCUCAACCUCCAAUGCAUCCCACCACAUGACGAUGCCUGAAGAGCCUUGGUUUUUUG",
    "polymerase ribozyme fitness (log ratio)": -6.6
  },
  {
    "Query Sequence": "GACCAAUCUGCCCUUAGAGCUCGAGAACAUCUUCGGAUGCAGAGGAGGCAGGCUUGGGUUGCGCGAUAGCGCCAACGGCCUCAACCUCCAAAGCAUCCCACCACAUGAUGAUGCCUGAAGAGCCUUGGUUUUUUG",
    "polymerase ribozyme fitness (log ratio)": -6.42
  },
  {
    "Query Sequence": "GAACAAUCUGCCCUCAGAGCUCGAGAACAUCUUCGAAUGCAGACGAGGCAGGCUUCGGUGGCGCGAUAGCGACAACGUCCUCAACCUCCAAUGCAUCCCACCACAUGAUGAUGCCUGAAGAGCCUUGGUAUUUUG",
    "polymerase ribozyme fitness (log ratio)": -4.85
  },
  {
    "Query Sequence": "GACCCAUCUGCCCUCAGAGCUCGAGAACAUCUUCGGAUGCAGAGGAGGCAGGCUUCGGUGGCGCGAUAGCACCAACGUCCUCAACCUCCAAUGCAUCCCACCACAUGAUGAUGCCUGAAGAGCCUUGGUUUAUUG",
    "polymerase ribozyme fitness (log ratio)": -1.18
  },
  {
    "Query Sequence": "GACCAAUCUGCCCUCAGAGCUAGAGAACAUCUUCGGAUGCAGAGGAGGCAGACUUCGGUAGCGCGAUAGCGCCAACGUCCUCAACCUCCAAUGCAUCCCACCACAUGAUGAUGCCUUAAGAGUCUUGGUUCUUUG",
    "polymerase ribozyme fitness (log ratio)": -6.69
  },
  {
    "Query Sequence": "GACCAAUCUGCCCUCAGAGCUCGAGAACAUCUUCGGAUGCAGAGGAGGCAGGCUUCGGUGGCGCGAUAGCGCCCACGUCCUCAACCUCCAAUGCAUCCCACCACAAGAUGAUGCCUGAAGAGUCUUGGUUUUUUG",
    "polymerase ribozyme fitness (log ratio)": 1.18
  },
  {
    "Query Sequence": "GACCAAUCUGGCCUCAGAGCUCGAGAACAUCUUCGGAUGCAGAGGAGGCAGGCUUCGGUGGCGCGAUAUCGCCAACGUCCUCAACCUCCAAUGCAUCCCACCACAUGAUGAUGCCUGAAGAGCCUUGGUUUUUUG",
    "polymerase ribozyme fitness (log ratio)": 0.709
  },
  {
    "Query Sequence": "GACCAAUCUGCCCUCAGAGCUCGAGAACAUCUUCGGAUGCAGAGGAGGCAGGCUUCGGUGGCGCGAUAGCGCCAACGUCCUCAACCUCCAAUGCAUCCCACCACAGGAUGAUGUCUGAAGAGCCUUGGUUUUUUG",
    "polymerase ribozyme fitness (log ratio)": -1.86
  },
  {
    "Query Sequence": "GACCAAUCUGCCCUCAGAGCUCGAGAACAUCUUCGGAUGCAGAGGAAGCAGGCUUCGGUGGCGCGAUAGCGCCAACGUCCUCAACCUCCAAUGCAUCCCACCACAUGAUGAUGCCUGAAGAGACUUGGUUUUUUG",
    "polymerase ribozyme fitness (log ratio)": -0.394
  },
  {
    "Query Sequence": "GACCAAUCUGACCUCAGCGCUCGAGAACAUCUUCGGAUGCAGAGGAGGCAGGCUUCGGUGGCGCGAUAGCGCCAACGUCCUCAACCUCCAAUGCAUCCCACCACAUGAUGAUGCCUGAAGAGCCUUGGUUUUUUG",
    "polymerase ribozyme fitness (log ratio)": -3.94
  },
  {
    "Query Sequence": "GACCAAUCUGCCCUCAGAGCUCGAGAACAUCUUCGGAUGCAGAGUAGGCAGGCUUCGGGGGCGCGAUAGCGCCAACGUCCUCAACCUCCAAUGCAUCCCACCACAUGAUGAAGCCUGAAGAGCCUUGGUUUUUUG",
    "polymerase ribozyme fitness (log ratio)": -0.539
  },
  {
    "Query Sequence": "GACCAAUCUGCCCUCAGAGCUCGAGAACAUCUUCGGAUGCAGAGGAGGCAGGCUUCGGUGGCUCGAUAGCGCCAACGUCCUCAACCUCCAAUGCAUCCCACCACAUGAUGAUGCCUGAACAGCCUUGGUUUUUUG",
    "polymerase ribozyme fitness (log ratio)": 0.0622
  },
  {
    "Query Sequence": "GACCAAUCUGCCCUCAGAGCUCGAGAACAUCUUCGGAUGCAGAGGAGGCAGGCUUCUGUGGCGCGAUAGCGCCAACCUCCUCAACCUCCAAUGCAUCCCACCACAUGAUGAUGCCUGAAGAGCCUUGGUGUUUUG",
    "polymerase ribozyme fitness (log ratio)": -2.56
  },
  {
    "Query Sequence": "GACCAAUCUGCCCUCAGAGCUCGAGAACAUCUUCGGAUGCAAAGGAGGCAGGCUUCGGUGGCGCGAUAGCGACAACGUCCUCAACCUCCAAUGCAUCCCACCACAUGAUGAUGUCUGAAGAGCCUUGGUUUUUUG",
    "polymerase ribozyme fitness (log ratio)": -2.37
  },
  {
    "Query Sequence": "GACCAAUCUGCCCUCAGAGCUCGAGAACAUCUUCGGAUGCAGAGGAGGCAGGCUUCGGUGGCGCGAUAGCGCCAACGUCCUCAACCUCCAAGGCAUCCCACCACAUGAAGAUGCCUGAAGAGCAUUGGUUAUUUG",
    "polymerase ribozyme fitness (log ratio)": -6.86
  },
  {
    "Query Sequence": "GACCAAUCUGCCCUCAGAGCUCGAGAACAUCUUCGGAAGCUGAUGAGGCAGGCUUCGGUGGCGCGAUAGCGCCAACGUCCUCAACCUCCAAUGCAUCCCACCACAUGAUGAUACCUGAAGAGCCUUGGUUUUUUG",
    "polymerase ribozyme fitness (log ratio)": -5.6
  },
  {
    "Query Sequence": "GACCAAUCUGCACUCUGAGCUCGAGAACAUCUUCGGAUGCAGACGAGGCAGGCUUCGGUGGCGCGAUAGCGCCAACGUCCUCAACCUCCAAUGUAUCCCACCACAUGAUGAUGCCUCAAGAGCCUUGGGUUUUUG",
    "polymerase ribozyme fitness (log ratio)": -5.45
  },
  {
    "Query Sequence": "GACCAAUUUGCCCUCAGAGCUCGGGAACAUCUUCGGAUGCAGAGGAGCCAGGCUUCGGUGGCGCGAUAGCGCCAACGUCCUCAACCUCCAAUGCAUCCCACCACAUGAUGAUGCGUGAAGAGCCUUGGUUUUUUG",
    "polymerase ribozyme fitness (log ratio)": -3.87
  },
  {
    "Query Sequence": "GACCAAUCUGCCCUCAGAGCGCGAGAACAUCUUCGGAUGCAGAGGAGGCAGGCUUCGGUGGCCCGAUAGCGCCAACGACCUCAACCUCCAAUGCAUCCCACCACAUGAUGAUGCUUGAUGAGCCUUGGUAUUUUG",
    "polymerase ribozyme fitness (log ratio)": -5.59
  },
  {
    "Query Sequence": "GACCAAUCUGCACUCAGAGCUCGAGAACAUCUUCGGAUGCAGAGGAGGCAGGCUUCGGUGACGCGAUAGCGCCAACGUCCUCAACCUCCAAUACAUCCCACCACAUGAUGAUGCCUGAAGAGCCUUGGUUUUUUG",
    "polymerase ribozyme fitness (log ratio)": -0.608
  },
  {
    "Query Sequence": "GACCAAUGUGCCCUCAGAGCUCGAGAACAUCUUCGGAUGCAGAGGAGGCAGGCUUCGAUGGCGCGAUAGCGCCAACGUCCUCAACCUCCAAUGCAACCCACCACAUGAUGAUGCCUGAAGAGCCUUGGUUUUUUG",
    "polymerase ribozyme fitness (log ratio)": 0.339
  },
  {
    "Query Sequence": "GACCAAUCUGCCCUCAGAGCUCGAGAACAUCUUCGGAUGCAGAGGAGGCAGGCUUCGGUGGCGCGAUAGCGCCAACGUCCUCAACCGCCAAUACAUCCCACCACAUGAUGAAGCCUGAAGAGCCUUGGUUUUAUG",
    "polymerase ribozyme fitness (log ratio)": 1.36
  },
  {
    "Query Sequence": "GACCAAUCUGCCCUCAGAGCUCGAGAACAUCUUCGGAUGCAGAGGAGGCAGGCUACGGUGUCGCGAUAGCGCCAACGUCCUCAACCUCCAAUGCAUCCCACCACAUGAUGAUGCCUGAAGAGCCUUGGUUUUUUG",
    "polymerase ribozyme fitness (log ratio)": -0.0687
  },
  {
    "Query Sequence": "GACCAAUCUGCCCACAGAGCUCGAGAACAUCUUCGGAUGCAGAGGAGACAGGCUUUGGUGGCGCGAUAGCGCCAACGUCCUCAACCUCCAAUGCAUCCCACCACAUGAUGAUGCCUUAAGAGCCUUGGUUUUUUG",
    "polymerase ribozyme fitness (log ratio)": -5.41
  }
]
